Value type: melting point

Compound: CC(C)(C)c1ccc(S(=O)(=O)NCCCCCCO)cc1 [53a]
Result: 53 to 54 °C

Compound: CC(C)c1ccc(S(=O)(=O)NCCCCOS(N)(=O)=O)cc1 [35b]
Result: 95 to 97 °C

Compound: NS(=O)(=O)OCCCCCCCCCCCNS(=O)(=O)c1ccccc1 [10b, 11-(Phenylsulfonamido]undecyl Sulfamate]
Result: 95 to 97 °C

Compound: Cc1ccc(S(=O)(=O)NCCCCCCOS(N)(=O)=O)cc1 [16b]
Result: 49 to 50 °C

Compound: Cc1ccc(S(=O)(=O)NCCCOS(N)(=O)=O)cc1 [13b]
Result: 86 to 87 °C

Compound: NS(=O)(=O)OCCCCCCCCCCCCNS(=O)(=O)c1ccccc1 [11b, 12-(Phenylsulfonamido]dodecyl Sulfamate]
Result: 102 to 103 °C

Compound: CC(C)c1ccc(S(=O)(=O)NCCCCCCOS(N)(=O)=O)cc1 [37b]
Result: 102 to 103 °C

Compound: CC(C)(C)c1ccc(S(=O)(=O)NCCCCCCCCO)cc1 [55a]
Result: 69 to 71 °C

Compound: Cc1ccccc1S(=O)(=O)NCCOS(N)(=O)=O [26b]
Result: 70 to 72 °C

* * *

The entries below come with measured inhibition at 1 µM values attached.
Study system: bovine carbonic anhydrase II (Bos taurus, UniProt P00921)
Construct: carbonic anhydrase II (bCAII, ≥3000 W-A units/mg from bovine erythrocytes) from Sigma; purchased Sigma (Taufkirchen, Germany); host or cells: isolated from bovine erythrocytes
Sequence (P00921 whole entry): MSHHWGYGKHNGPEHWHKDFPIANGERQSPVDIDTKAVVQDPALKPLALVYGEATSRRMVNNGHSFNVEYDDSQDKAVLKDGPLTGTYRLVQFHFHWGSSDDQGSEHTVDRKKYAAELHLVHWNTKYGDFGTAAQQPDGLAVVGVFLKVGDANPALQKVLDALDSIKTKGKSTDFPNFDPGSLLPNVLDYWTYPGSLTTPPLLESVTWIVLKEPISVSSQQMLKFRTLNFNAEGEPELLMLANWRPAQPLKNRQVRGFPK
Assay name: Enzymatic assay of bCA II inhibition, absorbance at 415 nm;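 further: enzyme is carbonic anhydrase II isolated from bovine erythrocytes, with its activity followed photometrically at 415 nm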
Assay type: biochemical
Measurement context: bCA II; 1 μM concentration of the inhibitor; triplicate with three technical replicas
Value type: inhibition at 1 µM (%)

Compound: Cc1cccc(S(=O)(=O)NCCCCCOS(N)(=O)=O)c1 [22b]
Numeric value: 49.1

Compound: CC(C)(C)c1cccc(S(=O)(=O)NCCCCCCOS(N)(=O)=O)c1 [62b]
Numeric value: 41.7

Compound: Cc1ccc(S(=O)(=O)NCCCCOS(N)(=O)=O)cc1 [14b]
Numeric value: 42.9

Compound: NS(=O)(=O)OCCCNS(=O)(=O)c1ccc(C2CCCCC2)cc1 [69b]
Numeric value: 43.1

Compound: CC(C)(C)c1cccc(S(=O)(=O)NCCCCOS(N)(=O)=O)c1 [60b]
Numeric value: 43.3

Compound: NS(=O)(=O)OCCCCNS(=O)(=O)c1ccc(C2CCCCC2)cc1 [70b]
Numeric value: 34.7

Compound: CC(C)c1ccc(S(=O)(=O)NCCOS(N)(=O)=O)cc1 [33b]
Numeric value: 63.2

Compound: CC(C)(C)c1ccc(S(=O)(=O)NCCCCCOS(N)(=O)=O)cc1 [52b]
Numeric value: 35.9

Compound: Cc1ccccc1S(=O)(=O)NCCCCCCCOS(N)(=O)=O [31b]
Numeric value: 55.6

Compound: CC(C)(C)c1ccc(S(=O)(=O)NCCCCCCCCOS(N)(=O)=O)cc1 [55b]
Numeric value: 21.3

Compound: NS(=O)(=O)OCCCCCCNS(=O)(=O)c1ccc(C2CCCCC2)cc1 [72b]
Numeric value: 8.6

Compound: Cc1ccccc1S(=O)(=O)NCCOS(N)(=O)=O [26b]
Numeric value: 69.1

Compound: NS(=O)(=O)OCCCCCCCCCNS(=O)(=O)c1ccccc1 [8b, 9-(Phenylsulfonamido]nonyl Sulfamate]
Numeric value: 55.4

Compound: CC(C)c1ccc(S(=O)(=O)NCCCCOS(N)(=O)=O)cc1 [35b]
Numeric value: 43.7

Compound: NS(=O)(=O)OCCCCCCCCNS(=O)(=O)c1ccc(C2CCCCC2)cc1 [74b]
Numeric value: 14.2

Compound: CC(C)c1cccc(S(=O)(=O)NCCCCCCOS(N)(=O)=O)c1 [44b]
Numeric value: 45.5

Compound: CC(C)(C)c1ccc(S(=O)(=O)NCCCCCCCOS(N)(=O)=O)cc1 [54b]
Numeric value: 28.4

Compound: Cc1ccccc1S(=O)(=O)NCCCCOS(N)(=O)=O [28b]
Numeric value: 37.9

Compound: CC(C)(C)c1ccc(S(=O)(=O)NCCCCCCOS(N)(=O)=O)cc1 [53b]
Numeric value: 29.1

Compound: NS(=O)(=O)OCCCCCCCNS(=O)(=O)c1ccccc1 [6b, 7-(Phenylsulfonamido]heptyl Sulfamate]
Numeric value: 56

Compound: Cc1ccc(S(=O)(=O)NCCCCCCCOS(N)(=O)=O)cc1 [17b]
Numeric value: 42.8

Compound: CC(C)(C)c1cccc(S(=O)(=O)NCCCCCCCOS(N)(=O)=O)c1 [63b]
Numeric value: 33.3

Compound: Cc1cccc(S(=O)(=O)NCCOS(N)(=O)=O)c1 [19b]
Numeric value: 59.5

Compound: CC(C)(C)c1ccccc1S(=O)(=O)NCCCCCCCOS(N)(=O)=O [67b]
Numeric value: 27.5

Compound: NS(=O)(=O)OCCCCCCCNS(=O)(=O)c1ccc(C2CCCCC2)cc1 [73b]
Numeric value: 14.8

Compound: CC(C)c1ccccc1S(=O)(=O)NCCCCCCCCOS(N)(=O)=O [48b]
Numeric value: 34.2

Compound: NS(=O)(=O)OCCCNS(=O)(=O)c1ccccc1 [2b, 3-(Phenylsulfonamido]propyl Sulfamate]
Numeric value: 39.9

Compound: NS(=O)(=O)OCCCCCCNS(=O)(=O)c1ccccc1 [5b, 6-(Phenylsulfonamido]hexyl Sulfamate]
Numeric value: 56

Compound: Cc1cccc(S(=O)(=O)NCCCCCCOS(N)(=O)=O)c1 [23b]
Numeric value: 51.8

Compound: CC(C)c1ccc(S(=O)(=O)NCCCOS(N)(=O)=O)cc1 [34b]
Numeric value: 60.3

Compound: Cc1cccc(S(=O)(=O)NCCCOS(N)(=O)=O)c1 [20b]
Numeric value: 48.4

Compound: CC(C)c1cccc(S(=O)(=O)NCCCCCOS(N)(=O)=O)c1 [43b]
Numeric value: 44.4

Compound: Cc1ccccc1S(=O)(=O)NCCCCCCOS(N)(=O)=O [30b]
Numeric value: 68.1

Compound: CC(C)(C)c1cccc(S(=O)(=O)NCCCCCOS(N)(=O)=O)c1 [61b]
Numeric value: 39.2

Compound: NS(=O)(=O)OCCCCCNS(=O)(=O)c1ccc(C2CCCCC2)cc1 [71b]
Numeric value: 18.6

Compound: CC(C)c1cccc(S(=O)(=O)NCCCOS(N)(=O)=O)c1 [41b]
Numeric value: 50.1

Compound: Cc1ccc(S(=O)(=O)NCCOS(N)(=O)=O)cc1 [12b]
Numeric value: 75.8

Compound: NS(=O)(=O)OCCCCCCCCNS(=O)(=O)c1ccc(C23CC4CC(CC(C4)C2)C3)cc1 [77b]
Numeric value: 32.6

Compound: CC(C)(C)c1ccc(S(=O)(=O)NCCOS(N)(=O)=O)cc1 [49b]
Numeric value: 75.6

Compound: CC(C)(C)c1ccc(S(=O)(=O)NCCCCCCCCCCOS(N)(=O)=O)cc1 [57b]
Numeric value: 20.6
